target_system: Breast cancer type 1 susceptibility protein (Homo sapiens) + BRCA1-associated RING domain protein 1 (Homo sapiens) (UniProt P38398+Q99728)
Sequence (P38398 whole entry, looked up, the tested form may be a part): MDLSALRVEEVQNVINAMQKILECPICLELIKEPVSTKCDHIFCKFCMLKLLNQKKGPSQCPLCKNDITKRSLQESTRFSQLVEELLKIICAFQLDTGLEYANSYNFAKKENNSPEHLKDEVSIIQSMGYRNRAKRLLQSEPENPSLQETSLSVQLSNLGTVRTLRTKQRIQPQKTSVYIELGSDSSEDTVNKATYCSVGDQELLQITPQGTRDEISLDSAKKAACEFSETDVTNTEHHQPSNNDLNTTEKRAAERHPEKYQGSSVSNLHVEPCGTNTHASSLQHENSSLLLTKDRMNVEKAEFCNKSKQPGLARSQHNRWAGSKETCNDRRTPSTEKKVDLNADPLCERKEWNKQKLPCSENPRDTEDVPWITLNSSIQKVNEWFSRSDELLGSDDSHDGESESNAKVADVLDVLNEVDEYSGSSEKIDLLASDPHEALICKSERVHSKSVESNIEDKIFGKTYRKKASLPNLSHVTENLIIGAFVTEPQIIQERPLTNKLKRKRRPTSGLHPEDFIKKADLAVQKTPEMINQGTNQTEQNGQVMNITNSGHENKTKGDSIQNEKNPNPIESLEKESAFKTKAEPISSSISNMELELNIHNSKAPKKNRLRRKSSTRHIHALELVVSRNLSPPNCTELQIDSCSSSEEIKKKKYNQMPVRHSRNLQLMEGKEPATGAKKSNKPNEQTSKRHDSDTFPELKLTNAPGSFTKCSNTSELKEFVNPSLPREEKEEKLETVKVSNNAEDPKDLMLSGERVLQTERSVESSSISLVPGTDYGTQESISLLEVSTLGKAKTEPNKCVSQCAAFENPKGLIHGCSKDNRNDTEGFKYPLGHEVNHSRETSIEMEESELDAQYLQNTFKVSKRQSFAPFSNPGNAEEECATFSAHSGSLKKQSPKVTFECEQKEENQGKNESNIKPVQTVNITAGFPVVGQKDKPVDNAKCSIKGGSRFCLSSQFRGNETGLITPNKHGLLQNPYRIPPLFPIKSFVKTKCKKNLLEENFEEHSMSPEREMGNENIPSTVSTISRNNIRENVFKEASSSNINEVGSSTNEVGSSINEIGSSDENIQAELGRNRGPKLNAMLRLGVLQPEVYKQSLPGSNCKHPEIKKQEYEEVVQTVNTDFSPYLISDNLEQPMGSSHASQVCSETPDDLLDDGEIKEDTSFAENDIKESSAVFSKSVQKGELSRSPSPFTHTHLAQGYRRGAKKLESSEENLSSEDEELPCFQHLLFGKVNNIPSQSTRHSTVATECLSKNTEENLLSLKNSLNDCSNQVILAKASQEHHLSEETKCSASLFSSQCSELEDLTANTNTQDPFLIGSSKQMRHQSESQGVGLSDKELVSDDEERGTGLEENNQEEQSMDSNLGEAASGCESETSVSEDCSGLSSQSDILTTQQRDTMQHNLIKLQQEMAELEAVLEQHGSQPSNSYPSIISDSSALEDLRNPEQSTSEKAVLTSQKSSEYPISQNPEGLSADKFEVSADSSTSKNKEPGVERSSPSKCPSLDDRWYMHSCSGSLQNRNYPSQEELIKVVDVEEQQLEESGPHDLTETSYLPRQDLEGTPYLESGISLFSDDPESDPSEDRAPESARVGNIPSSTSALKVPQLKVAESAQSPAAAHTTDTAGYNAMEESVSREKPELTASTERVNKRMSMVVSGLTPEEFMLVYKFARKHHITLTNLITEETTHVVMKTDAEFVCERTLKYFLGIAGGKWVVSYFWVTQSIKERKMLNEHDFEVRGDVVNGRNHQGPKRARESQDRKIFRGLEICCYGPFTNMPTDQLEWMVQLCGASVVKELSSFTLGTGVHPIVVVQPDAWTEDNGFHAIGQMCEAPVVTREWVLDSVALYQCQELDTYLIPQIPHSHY
Sequence (Q99728 whole entry, looked up, the tested form may be a part): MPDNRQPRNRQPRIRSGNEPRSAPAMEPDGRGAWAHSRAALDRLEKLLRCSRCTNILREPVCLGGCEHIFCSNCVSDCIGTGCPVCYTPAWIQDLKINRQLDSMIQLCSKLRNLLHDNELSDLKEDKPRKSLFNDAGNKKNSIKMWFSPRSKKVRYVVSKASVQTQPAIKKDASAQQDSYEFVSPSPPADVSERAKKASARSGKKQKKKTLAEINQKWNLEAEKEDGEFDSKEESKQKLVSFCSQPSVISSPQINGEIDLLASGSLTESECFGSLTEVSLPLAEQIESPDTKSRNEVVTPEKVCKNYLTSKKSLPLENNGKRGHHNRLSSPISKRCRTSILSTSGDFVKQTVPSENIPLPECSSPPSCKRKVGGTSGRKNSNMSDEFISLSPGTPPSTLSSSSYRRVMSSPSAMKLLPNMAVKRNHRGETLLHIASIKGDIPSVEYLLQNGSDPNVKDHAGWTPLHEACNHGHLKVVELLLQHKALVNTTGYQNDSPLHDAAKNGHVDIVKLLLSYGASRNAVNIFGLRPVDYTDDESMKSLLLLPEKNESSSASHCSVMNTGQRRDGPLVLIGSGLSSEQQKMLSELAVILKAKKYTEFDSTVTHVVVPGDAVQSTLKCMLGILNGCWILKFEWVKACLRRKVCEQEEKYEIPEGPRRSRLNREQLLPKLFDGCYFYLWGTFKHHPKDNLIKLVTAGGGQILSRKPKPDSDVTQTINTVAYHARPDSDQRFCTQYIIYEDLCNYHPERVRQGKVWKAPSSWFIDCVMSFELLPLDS
experiment_description: Brca1-Bard1 BiLC signal decrease – cell-based, luminescence, counter-screen for Mdm2/MdmX interaction inhibitor project, dose response (AID 504669)
test_context: SaOS-2 Brca1/Bard1 split-luciferase complementation
pIC50: −log10 of the molar value.
measurement_label: pIC50

## Task Which value of pIC50 has been reported for CCN(CC)S(=O)(=O)c1ccc(NC(=O)c2cccnc2Cl)c(NC(=O)c2cccnc2Cl)c1 in the records?
## Result 5.00

1. Cc1nc(NC2=NCN(CCCN3CCOCC3)CN2)nc2c(C)cccc12
2. O=C(CN1CCCc2ccccc21)N/N=C/c1c(O)ccc2ccccc12
## Task Lab note: check whether 1 or 2 has the lower measured pIC50. // caller expects the label of the chosen entry
## Result 1

====

Examples of compounds with documented IC50 follow.
target_system: Breast cancer type 1 susceptibility protein (Homo sapiens) + BRCA1-associated RING domain protein 1 (Homo sapiens) (UniProt P38398+Q99728)
experiment_description: Brca1-Bard1 BiLC signal decrease – cell-based, luminescence, counter-screen for Mdm2/MdmX interaction inhibitor project, dose response (AID 504669)
test_context: SaOS-2 Brca1/Bard1 split-luciferase complementation

## Task Which value of IC50 has been reported for CCOC(=O)c1ccc(Nc2nc(N)c3cc(OC)c(OC)cc3n2)cc1 in the records?
## Result 14.3 µM

## Task # iterate: CC1(C)C(=O)Nc2ccccc2N1C(=O)Cn1ncc(Cl)c(Cl)c1=O
## Result 8.39 µM

## Task # iterate: CCOC(=O)/C=C/C(=O)OCC(=O)NC(c1ccccc1)c1ccccc1
## Result 3.9 µM

## Task # iterate: COc1ccc2c(c1)C1(Nc3ccccc3-c3nc4ccccc4n31)C(=O)N2C (stereo not given)
## Result 1.18 µM

## Task # iterate: COCCn1c(C)cc(C2=NNC(=Nc3ccccc3F)SC2)c1C
## Result 0.493 µM

## Task # iterate: CCOc1cc(N2CCOCC2)c(OCC)cc1NC(=O)COc1cccc2cccnc12
## Result 5.07 µM

## Task # iterate: COc1cc(-c2nc(-c3ccc(NC(=O)c4ccc5c(c4)OCO5)cc3)no2)cc(OC)c1OC
## Result 13.4 µM

## Task # iterate: O=C(/C=C/c1c(F)cccc1Cl)c1ccc(O)cc1
## Result 6.64 µM

Others:
## Task Which value of IC50 has been reported for Cn1nc([N+](=O)[O-])nc1Sc1nnc(-c2ccccc2)o1 in the records?
## Result 12.3 µM

## Task # iterate: Cc1cccn2c(=O)c3cc(C(=O)NCCc4ccccc4)c(=N)n(Cc4ccco4)c3nc12
## Result 4.13 µM

====

target_system: Breast cancer type 1 susceptibility protein (Homo sapiens) + BRCA1-associated RING domain protein 1 (Homo sapiens) (UniProt P38398+Q99728)
experiment_description: Brca1-Bard1 BiLC signal decrease – cell-based, luminescence, counter-screen for Mdm2/MdmX interaction inhibitor project, dose response (AID 504669)
test_context: SaOS-2 Brca1/Bard1 split-luciferase complementation
pIC50: −log10 of the molar value.
measurement_label: pIC50

Some compounds with known pIC50 results, for comparison:
## Task Which value of pIC50 has been reported for CCN1C/C(=C/c2ccc(OC)c(O)c2)C(=O)/C(=C/c2ccc(OC)c(O)c2)C1 in the records?
## Result 5.01

## Task # iterate: CC(C)c1cccc(O)c(=O)c1
## Result 5.41

I. COc1ccc(-c2cc3c(=O)n(CC(=O)NCCCN4CCC(N5CCCCC5)CC4)nc(C)n3n2)cc1
II. O=c1oc2ccccc2cc1-c1cn(-c2ccccc2)c(=S)[nH]1
III. O=[N+]([O-])c1ccccc1S(=O)(=O)Nc1cccc2cccnc12
## Task Task for the reader: rank each entry by its pIC50, from the minimum upward. Record the ranking as a list of labels in the requested order.
## Result I, III, II
